- Subject Of Test: Gal-1 (Homo sapiens, UniProt P09382)
- Construct: made in house; host or cells: E. coli BL21(DE3)
- Sequence (P09382 whole entry): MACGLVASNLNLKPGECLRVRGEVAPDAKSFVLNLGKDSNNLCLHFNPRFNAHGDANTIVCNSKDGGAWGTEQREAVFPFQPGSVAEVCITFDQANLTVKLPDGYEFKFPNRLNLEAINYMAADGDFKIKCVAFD
- Test Name: Pull-down assay with immobilized protein and LSM libraries
- Format: binding
- Run Parameters: H12 library; 1:1 binding assumed; read-out: Surface mapping KD (apparent)

Structure String: NC(=O)[C@H]1CCC[C@@H]1NC(=O)[C@H]1CCC[C@@H]1NC(=O)C[C@H](CC(=O)O)NC(=O)[C@H]1CCC[C@@H]1NC(=O)[C@H]1CCC[C@@H]1NC(=O)C[C@H](CCC(=O)O)NC(=O)[C@H]1CCC[C@@H]1NC(=O)[C@H]1CCC[C@@H]1N
Subject Of Test: Gal-1 (Homo sapiens, UniProt P09382)
Readout Unit: µM
Kd: 238
//
Structure String: CC[C@H](C)[C@@H](CC(=O)N[C@H]1CCC[C@@H]1C(=O)N[C@H]1CCC[C@@H]1C(N)=O)NC(=O)[C@H]1CCC[C@@H]1NC(=O)[C@H]1CCC[C@@H]1NC(=O)C[C@H](CCC(=O)O)NC(=O)[C@H]1CCC[C@@H]1NC(=O)[C@H]1CCC[C@@H]1N
Subject Of Test: Gal-1 (Homo sapiens, UniProt P09382)
Readout Unit: µM
Kd: 244
//
Structure String: CC[C@H](C)[C@@H](CC(=O)N[C@H]1CCC[C@@H]1C(=O)N[C@H]1CCC[C@@H]1C(=O)N[C@@H](CCCNC(=N)N)CC(=O)N[C@H]1CCC[C@@H]1C(=O)N[C@H]1CCC[C@@H]1C(N)=O)NC(=O)[C@H]1CCC[C@@H]1NC(=O)[C@H]1CCC[C@@H]1N
Subject Of Test: Gal-1 (Homo sapiens, UniProt P09382)
Readout Unit: µM
Kd: 120
//
Structure String: CC(C)C[C@@H](CC(=O)N[C@H]1CCC[C@@H]1C(=O)N[C@H]1CCC[C@@H]1C(N)=O)NC(=O)[C@H]1CCC[C@@H]1NC(=O)[C@H]1CCC[C@@H]1NC(=O)C[C@@H](NC(=O)[C@H]1CCC[C@@H]1NC(=O)[C@H]1CCC[C@@H]1N)C(C)C
Subject Of Test: Gal-1 (Homo sapiens, UniProt P09382)
Readout Unit: µM
Kd: 469
